Examples of substances with documented CC50, HeLa follow.
System: HeLa cervical cancer cells
Assay: Cell toxicity, resazurin, HeLa
Format: cell-based, human
Details: cervix, p53 WT (rep), 24 h, 0.25–32 μM peptide, mean ± SD, three independent experiments
Ends that are not written are not given here.

Consider the following illustrative entries.
# substance, observable, assay result
data = [
    ("APLYKKIIKKLLES-NH2 [PF4P]", "CC50, HeLa", ">32 µM"),
    ("LQAPLYKKIIKKLLESGGSGGAPLYKKIIKKLLES-NH2 [PF4PD]", "CC50, HeLa", "17.2 ± 2.2 µM"),
]

Please find the next substance below.
query: Bench note: what CC50, HeLa did LQAPLTFEHYWALLTSGGSGGAPLYKKIIKKLLES-NH2 [PF4P_pDI] show?
result: >32 µM

====

Test system: MCF7 breast cancer cells
Test: Cell toxicity, resazurin, MCF7
Assay type: cell-based, human
Settings: p53 WT, 24 h, 0.25–32 μM peptide, mean ± SD, three independent experiments
Bridge positions count the residues as written; N and C are the ends. Ends that are not written are not given here.
observable: CC50, MCF7 (µM)
Your answer should be a plain number; it is taken to be in µM.

# substance, observable, unit descriptor, assay result
data = [
    ("LQAPLYKKIIKKLLESGGSGGAPLYKKIIKKLLES-NH2 [PF4PD]", "CC50, MCF7", "µM", 17.6),
]

Please find the next substance below.
query: Bench note: what CC50, MCF7 did CGGPLYKKIIKKLLESIIKKGGSGGSGGLTFEHYWAQLTGGC-NH2 (disulfide 1-42) [cPF4Pext_pDI] show?
result: 18.6

====

Target: MDMX (Homo sapiens)
Sequence (O15151 1-490): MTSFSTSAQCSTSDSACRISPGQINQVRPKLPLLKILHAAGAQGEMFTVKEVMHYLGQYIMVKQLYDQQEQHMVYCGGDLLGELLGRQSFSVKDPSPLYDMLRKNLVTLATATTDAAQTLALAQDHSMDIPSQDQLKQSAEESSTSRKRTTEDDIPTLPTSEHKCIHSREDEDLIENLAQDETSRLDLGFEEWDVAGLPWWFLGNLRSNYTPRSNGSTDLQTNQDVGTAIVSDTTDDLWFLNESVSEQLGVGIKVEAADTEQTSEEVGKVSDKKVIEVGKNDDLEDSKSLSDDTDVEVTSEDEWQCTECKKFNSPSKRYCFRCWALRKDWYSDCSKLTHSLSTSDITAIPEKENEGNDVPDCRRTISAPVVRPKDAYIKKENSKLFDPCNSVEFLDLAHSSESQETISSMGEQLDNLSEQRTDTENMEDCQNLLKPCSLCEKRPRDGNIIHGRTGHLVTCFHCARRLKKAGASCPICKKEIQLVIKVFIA
Assay: Fluorescence polarization competition, F-pDI:MDMX
Type: binding
Bridge positions count the residues as written; N and C are the ends. Ends that are not written are not given here.
observable: pIC50
The scale used: pIC50 is minus the common logarithm of the concentration in molar units.

query: Bench note: what pIC50 did CGGPLYKKIIKKLLESIIKKGGSGGSGGLTFEHYWAQLTGGC-NH2 (disulfide 1-42) [cPF4Pext_pDI] show?
result: 7.10

====

Experiment: Cell toxicity, resazurin, HaCaT
Format: cell-based
Details: human, HaCaT keratinocyte cells
Bridge positions count the residues as written; N and C are the ends. Ends that are not written are not given here.
Examples of substances with documented CC50 at 24 h follow.
Your answer should be a plain number; it is taken to be in µM.

Consider the following illustrative entries.
# substance, observable, assay result
data = [
    ("LQAPLYKKIIKKLLESGGSGGAPLYKKIIKKLLES-NH2 [PF4PD]", "CC50 at 24 h", 4.3),
    ("LQAPLTFEHYWALLTSGGSGGAPLYKKIIKKLLES-NH2 [PF4P_pDI]", "CC50 at 24 h", 17.1),
]

Please find the next substance below.
query: Bench note: what CC50 at 24 h did CGGPLYKKIIKKLLESIIKKGGSGGSGGLTFEHYWAQLTGGC-NH2 (disulfide 1-42) [cPF4Pext_pDI] show?
result: 7.2
